# reported absorption ratio (ELISA); entries follow
Biological target: T1, mouse P2X7 (mouse, UniProt Q9Z1M0 1-595)
T1 construct: on transfected CHO or Hek293 cells, or endogenous on Yac-1 cells; also called mP2X7; mouse purinoceptor P2X7
T1 sequence: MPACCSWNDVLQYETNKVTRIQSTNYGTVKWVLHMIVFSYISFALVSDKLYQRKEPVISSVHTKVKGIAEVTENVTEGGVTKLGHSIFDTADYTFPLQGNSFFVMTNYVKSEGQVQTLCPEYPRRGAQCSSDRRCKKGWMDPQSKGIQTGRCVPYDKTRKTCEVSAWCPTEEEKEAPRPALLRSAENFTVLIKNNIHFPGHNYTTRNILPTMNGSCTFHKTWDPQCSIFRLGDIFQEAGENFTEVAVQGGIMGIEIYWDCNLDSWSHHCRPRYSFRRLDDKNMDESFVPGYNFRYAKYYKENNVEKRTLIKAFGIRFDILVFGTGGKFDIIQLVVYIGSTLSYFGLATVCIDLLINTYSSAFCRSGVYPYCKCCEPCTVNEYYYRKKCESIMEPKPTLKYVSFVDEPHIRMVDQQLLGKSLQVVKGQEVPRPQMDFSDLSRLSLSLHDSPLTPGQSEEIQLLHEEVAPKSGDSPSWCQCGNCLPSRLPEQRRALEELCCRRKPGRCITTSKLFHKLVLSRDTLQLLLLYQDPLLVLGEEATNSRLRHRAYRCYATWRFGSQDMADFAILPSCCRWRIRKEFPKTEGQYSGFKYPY
Test: phage ELISA, mP2X7-CHO vs control CHO cells

- binder: "P2X7PMP8B4 (VHH, family 5, 2; on phage or c-myc/His6-tagged in assays) VHH: EVQLVESGGGLVQAGGSLRLSCAASGNFFRVNTMAWYRQAPGKQRELVADITRGDRTNYADTVNGRFTISRDNVRNTVYLQMNSLKPEDTAAYYCYARIELGVLEPRDYWGQGTQVTVSS"
  scale_unit: "ratio"
  absorption ratio (ELISA): 13
- binder: "P2X7PMP8B12 (VHH, family 5, 3; on phage or c-myc/His6-tagged in assays) VHH: EVQLVESGGGLVQAGGSLRLSCAASGSFFRVNVMAWYRQGPGKQRELVADITRGDRTNYADSVNGRFTISRDNVRNTVYLQMNGLKPEDTAVYYCYATIELGVLEPRDYWGQGTQVTVSS"
  scale_unit: "ratio"
  absorption ratio (ELISA): 38
